System: Saccharomyces cerevisiae
Experiment: Inhibition of Saccharomyces cerevisiae alpha-glucosidase at 200 uM using p-nitrophenyl-glycoside as substrate incubated for 20 mins followed by substrate addition measured immediately relative to control
property measured: inhibition (%)
Your answer is read as %, so omit the unit and give the number.

I'm curious: which inhibition was measured for COc1cc(O)c2c(=O)oc(C[C@@H](O)CCl)cc2c1 tested on Saccharomyces cerevisiae?
41

I'm curious: which inhibition was measured for COc1cc(O)c2c(=O)oc(C[C@@H](Cl)CO)cc2c1 tested on Saccharomyces cerevisiae?
58

I'm curious: which inhibition was measured for COc1cc(O)c2c(=O)oc(C[C@@H](O)C(Cl)Cl)cc2c1 tested on Saccharomyces cerevisiae?
69

I'm curious: which inhibition was measured for COc1cc(O)c2c(=O)oc(C[C@@H](O)CO)cc2c1O tested on Saccharomyces cerevisiae?
83

I'm curious: which inhibition was measured for COC(=O)[C@@H]1[C@H](C(=O)OC)[C@@H](c2cc3cc(OC)cc(O)c3c(=O)o2)[C@H]1c1cc2cc(OC)cc(O)c2c(=O)o1 tested on Saccharomyces cerevisiae?
18

I'm curious: which inhibition was measured for COc1cc(O)c2c(=O)oc(C[C@@H](Cl)CO)cc2c1O tested on Saccharomyces cerevisiae?
66

I'm curious: which inhibition was measured for C[C@H](O)Cc1cc2c(O)c(O)cc(O)c2c(=O)o1 tested on Saccharomyces cerevisiae?
91

I'm curious: which inhibition was measured for COc1cc(O)c2c(=O)oc(C[C@@H](O)C(Cl)Cl)cc2c1O tested on Saccharomyces cerevisiae?
91

I'm curious: which inhibition was measured for COC(=O)[C@@H]1[C@H](C(=O)OC)[C@H](c2cc3cc(OC)cc(O)c3c(=O)o2)[C@@H]1c1cc2cc(OC)cc(O)c2c(=O)o1 tested on Saccharomyces cerevisiae?
23

I'm curious: which inhibition was measured for COc1cc(O)c2c(=O)oc(C[C@@H]3O[C@@H]3C(C)=O)cc2c1 tested on Saccharomyces cerevisiae?
95

====

Target: Phosphotyrosine protein phosphatase (Mycobacterium tuberculosis, UniProt A0A045ISB3)
Sequence (A0A045ISB3 whole entry): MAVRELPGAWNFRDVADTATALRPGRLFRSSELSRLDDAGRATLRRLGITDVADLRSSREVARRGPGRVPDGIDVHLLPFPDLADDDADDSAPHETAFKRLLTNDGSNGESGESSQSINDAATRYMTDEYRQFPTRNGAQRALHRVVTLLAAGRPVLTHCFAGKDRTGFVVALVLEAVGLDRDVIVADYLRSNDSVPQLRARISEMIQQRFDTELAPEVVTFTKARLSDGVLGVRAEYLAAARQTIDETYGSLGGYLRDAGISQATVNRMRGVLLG
property measured: IC50
Respond with the figure and its unit, in that order.

I'm curious: which IC50 was measured for CC1(C)CC[C@]2(C(=O)O)CC[C@]3(C)C(=CC[C@@H]4[C@@]5(C)CC[C@H](O)C(C)(C)[C@@H]5CC[C@]43C)[C@@H]2C1 [OLEANOLIC_ACID] tested on Phosphotyrosine protein phosphatase (Mycobacterium tuberculosis, UniProt A0A045ISB3)?
22.1 µM

I'm curious: which IC50 was measured for C[C@H](O)Cc1cc2c(O)c(O)cc(O)c2c(=O)o1 tested on Phosphotyrosine protein phosphatase (Mycobacterium tuberculosis, UniProt A0A045ISB3)?
20.7 µM
